Target: mouse ACVR2A (mouse, UniProt P27038 20-135, limits assumed); further: test concentration or dose not given here
Sequence (P27038 20-135 limits assumed): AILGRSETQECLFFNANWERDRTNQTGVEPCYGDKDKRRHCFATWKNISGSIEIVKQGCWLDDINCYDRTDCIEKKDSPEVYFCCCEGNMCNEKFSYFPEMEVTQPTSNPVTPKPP
Assay: ELISA
Reported optical density values for a set of binders
Respond with the bare value in OD.

Check out these entries, answers already filled in.
| binder | measured-number |
| --- | --- |
| 373_E06 (antibody, V domains shown, VH/VL only) VH: EVQLLESGGGLVQPGGSLRLSCAASGFTFDSYSMNWVRQAPGKGLEWVAGINYNSGYKSYADSVKGRFTISRDNSKNTLYLQMNSLRAEDTAVYYCARSATWHDTHLDYWGQGTLVTVSS VL: DIQMTQSPSSLSASVGDRVTITCRASQSILRYLNWYQQKPGKAPKLLIYAATSLHSGVPSRFSGSGSGTDFTLTISSLQPEDFATYYCQQSYDNPLTFGGGTKVEIK | 3.64 |
| 374_B09 (antibody, V domains shown, VH/VL only) VH: EVQLLESGGGLVQPGGSLRLSCAASGFTFSSYSMNWVRQAPGKGLEWVSGINYNGGYKSYADSVKGRFTISRDNSKNTLYLQMNSLRAEDTAVYYCARSATWHDTHLDYWGQGTLVTVSS VL: DIQMTQSPSSLSASVGDRVTITCRASQSIVRYLNWYQQKPGKAPKLVIYAATSLASGVPSRFSGSGSGTDFTLTISSLQPEDFATYYCQQSYELPLTFGGGTKVEIK | 3.65 |
| 376_C01 (antibody, V domains shown, VH/VL only) VH: EVQLLESGGGLVQPGGSLRLSCAASGFTFDSYSMNWVRQAPGKGLEWVAGINYNGGYTSYADSVKGRFTISRDNSKNTLYLQMNSLRAEDTAVYYCARSANWHDTALDYWGQGTLVTVSS VL: DIQMTQSPSSLSASVGDRVTITCRASQSILTYLNWYQQKPGKAPKLLIYAATSLASGVPSRFSGSGSGTDFTLTISSLQPEDFATYYCQQSYDNPLTFGGGTKVEIK | 3.6 |
| 373_E04 (antibody, V domains shown, VH/VL only) VH: EVQLLESGGGLVQPGGSLRLSCAASGFTFDSYSMNWVRQAPGKGLEWVAGINYNGGYTSYADSVKGRFTISRDNSKNTLYLQMNSLRAEDTAVYYCARSATWHDTHLDYWGQGTLVTVSS VL: DIQMTQSPSSLSASVGDRVTITCRASQSILTYVNWYQQKPGKAPKLLIYAATSRASGVPSRFSGSGSGTDFTLTISSLQPEDFATYYCQQSYNSPLTFGGGTKVEIK | 3.55 |
| 376_C11 (antibody, V domains shown, VH/VL only) VH: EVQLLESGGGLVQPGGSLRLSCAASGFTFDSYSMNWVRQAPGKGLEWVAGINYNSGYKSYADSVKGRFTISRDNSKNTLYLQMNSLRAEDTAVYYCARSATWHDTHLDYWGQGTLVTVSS VL: DIQMTQSPSSLSASVGDRVTITCRASQSILTYLNWYQQKPGKAPKLVIYAATSRASGVPSRFSGSGSGTDFTLTISSLQPEDFATYYCQQSYDNPLTFGGGTKVEIK | 3.63 |

Now consider a different binder.
I have this binder here, 366_D02 (antibody, V domains shown, VH/VL only) VH: EVQLLESGGGLVQPGGSLRLSCAASGFTFSSYSMNWVRQAPGKGLEWVASINYNGGYTSYADSVKGRFTISRDNSKNTLYLQMNSLRAEDTAVYYCARSATWHDTHLDYWGQGTLVTVSS VL: DIQMTQSPSSLSASVGDRVTITCRASQSILSYVNWYQQKPGKAPKLLIYATTSLASGVPSRFSGSGSGTDFTLTISSLQPEDFATYYCQQSYDLPLTFGGGTKVEIK , and I need its recorded optical density.
2.55

Source listed as patent US20210380703A1.
